# Target Entity: Cytochrome P450 2A6 (Homo sapiens)
# Sequence (P11509 whole entry): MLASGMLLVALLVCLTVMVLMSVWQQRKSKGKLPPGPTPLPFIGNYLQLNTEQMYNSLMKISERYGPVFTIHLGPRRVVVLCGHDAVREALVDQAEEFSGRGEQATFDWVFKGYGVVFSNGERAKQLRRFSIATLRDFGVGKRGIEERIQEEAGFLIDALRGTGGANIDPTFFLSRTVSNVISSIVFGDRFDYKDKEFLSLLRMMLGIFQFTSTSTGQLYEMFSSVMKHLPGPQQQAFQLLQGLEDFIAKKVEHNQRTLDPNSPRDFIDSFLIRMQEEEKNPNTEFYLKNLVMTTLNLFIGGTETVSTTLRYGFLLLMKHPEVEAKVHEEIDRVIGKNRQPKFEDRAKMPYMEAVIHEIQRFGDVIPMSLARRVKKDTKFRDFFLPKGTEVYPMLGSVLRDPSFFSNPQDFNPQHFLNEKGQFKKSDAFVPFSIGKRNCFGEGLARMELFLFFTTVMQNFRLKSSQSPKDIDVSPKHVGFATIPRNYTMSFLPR
Readout Label: pIC50
Answers are plain numbers, as −log10 of the molar value.

Check out these entries, answers already filled in.
c1cn(CC2CC2)cn1    4.27
O=C(O)CCCCn1ccnc1    3.75

// below: pIC50 requested for another compound
Request: pIC50 for CCCCCCCn1ccnc1 ?
Response: 4.96

* * *

# Target Entity: Cytochrome P450 2A6 (Homo sapiens)
We label by threshold. Values of IC50 strictly beneath 9 µM are YES. Values of 9 µM and up are NO.

Below are worked cases with known answers.
CCCn1ccnc1    NO
CC/C=C/Cn1ccnc1    YES
CCCCCCCCCc1ncc[nH]1    NO
CCCCn1ccnc1    YES

Request: Hello, I'm reviewing records and need to know if IC50 of CCCCCCn1ccnc1 is below 9 µM. Could you check?
Response: YES

Request: Queued: CC(C)=CCCC(C)Cc1ncc[nH]1 (stereo not given)
Response: NO

Request: Queued: N#CCCCCn1ccnc1
Response: NO

* * *

pIC50: −log10 of the molar value.
Assay system UniProt:P11509; read-out recorded as pIC50.

Check out these entries, answers already filled in.
OCCCCCn1ccnc1    3.91
C=Cn1ccnc1    < 3.52

// below: pIC50 requested for another compound
Request: Find pIC50 (UniProt:P11509) for the entry OCCCCn1ccnc1
Response: < 3.52

This collection of values is drawn from BindingDB's records for doi:10.1002/cbic.200800712.
